Listed next: entries and their corresponding photoluminescence quantum yield.
Experiment: photoluminescence quantum yield (fraction); solvent given as SMILES
Conditions: in CC#N
MEASURED ENDPOINT: photoluminescence quantum yield

> print(dat)
                               smiles.entry                measured.endpoint  quantitative.readout
1  CCOC(=O)/C(C#N)=C\c1ccc2c(c1)c1ccccc1n2-c1ccc(C)cc1  photoluminescence quantum yield                  0.01
2  C(=C\c1cc(/C=C/c2ccc(-n3c4ccccc4c4ccccc43)cc2)cc(/C=C/c2ccc(-n3c4ccccc4c4ccccc43)cc2)c1)/c1ccc(-n2c3ccccc3c3ccccc32)cc1  photoluminescence quantum yield                  0.83
3  C[C@]12SC(=O)C=C1c1nc(-c3ccccc3)[nH]c1C1=CC(=O)S[C@@]12C  photoluminescence quantum yield                  0.16
